Measured growth, listed per entry for reference.
# Tested on: HOP-92 NSCLC
# assay-comment: NCI-60 one-dose screen, 48 h (100 = growth as untreated, 0 = no growth, -100 = all killed)
# cond: 10 µM unless noted
The panel holds about 83,000 compounds, 20% with a hit somewhere; the sample as a whole holds those more often.
Give just the numeric value; % need not be written.

1) CCCCC/C(C=C(C#N)C#N)=C/c1ccccc1: 112
2) NC(=NCCCOc1ccc(Cl)cc1)Nc1ccc(C(F)(F)F)cc1: 20.9

Challenge: Please provide the recorded growth for Clc1ccc2c(NCCCCNc3nc(N4CCCCC4)nc4ccccc34)ccnc2c1 , tested on HOP-92 NSCLC.
Response given: -35.3

Challenge: Please do the same for CCc1nnc(CNc2ccc(Cl)cc2)o1 as well.
Response given: 102

Challenge: Please do the same for Cn1cc(-c2nonc2-c2c[nH]c3ccccc23)c2cccnc21 as well.
Response given: 62.2

Challenge: Please do the same for NC(=NC1C2CC3CC(C2)CC1C3)Nc1ccc(I)cc1 (stereo not given) as well.
Response given: 31.1

Challenge: Please do the same for O=S(=O)(Nc1ccc(I)cc1F)c1ccc(-c2cnc(C3CC3)o2)cc1 as well.
Response given: 62.1

* * *

# Test system: SW-620 colon
# assay-comment: NCI-60 one-dose screen, 48 h (100 = growth as untreated, 0 = no growth, -100 = all killed)
# cond: 10 µM unless noted
About 83,000 compounds went through this panel and 20% of them were active in at least one assay; those are over-represented in the sample as a whole.
measured-attribute: growth (%)
Give just the numeric value; % need not be written.

Some entries whose results are on file:
1) N#CCCN=Nc1c(O)[nH]c2ccc([N+](=O)[O-])cc12: 99.9
2) Clc1ccc2c(NCCCCNc3nc(N4CCCCC4)nc4ccccc34)ccnc2c1: -1.17
3) COc1cc2c(cc1-c1c(C)noc1C)ncc1nc(C3CCCCC3)n([C@H](C)COC(F)F)c12: 58.7
4) CCN(CC)c1ccc(-c2cc(-c3cc(OC)c(OC)c(OC)c3)nc(N3CCOCC3)c2C#N)cc1: 30.8
5) COc1ccc(-c2n[nH]nc2-c2csc3ccccc23)cc1OC: 21.3
6) COc1cc(-c2nc(C(=O)NCC(=O)NO)nn2-c2ccc(Cl)cc2)cc(OC)c1OC: 97.1
7) O=C(O)c1ccc(N=CC(=O)c2ccc(-c3ccccc3)cc2)cc1: 93.3
8) FC(F)(F)c1ccc(-c2cn3nc(-c4c[nH]c5ccc(Br)cc45)sc3n2)cc1: 97.3
9) CC(C)C1=C[C@@]23CC[C@@H]4[C@](C)(CCC[C@@]4(C)C(=O)N4CCCNCC4)[C@H]2C[C@@H]1[C@H]1C(=O)CCC(=O)[C@H]13: 105
10) CC1C(/C=N/Nc2ccccc2)C(C#N)(C#N)C1(C#N)C#N (stereo not drawn): 60.2

Challenge: May I ask what growth has been recorded for CC(=O)O[C@H]1CC[C@]2(C)[C@H]3CC=C4[C@@H]5CC(C)(C)CC[C@]5(C(=O)NCCNCCNCCN)CC[C@@]4(C)[C@]3(C)CC[C@H]2C1(C)C ?
Response given: -83.1

Challenge: Please do the same for O=C1c2cccc3cccc(c23)C(=O)N1CCCCCN1CCN(CCCCCOc2ccc(-c3nc4ccc(N5CCOCC5)cc4[nH]3)cc2)CC1 as well.
Response given: 17.1

Challenge: Please do the same for C=C(C)[C@@H]1CC[C@]2(C(=O)OC)CC[C@]3(C)[C@H](CC[C@@H]4[C@@]5(C)C/C(=C/c6ccc(OC)cc6)C(=O)C(C)(C)[C@@H]5CC[C@]43C)[C@@H]12 as well.
Response given: 62.5

Challenge: Please do the same for CC(=O)OCCC/C(=C/c1cc2ccccc2c2ccccc12)[N+](=O)[O-] as well.
Response given: -88.2

Challenge: Please do the same for O=C(Cn1cccc(Nc2ccccc2)c1=O)Nc1ccccc1 as well.
Response given: 102

Challenge: Please do the same for COc1ccc(/C=C/c2nc(-c3n[nH]c(=O)n3-c3ccccc3)c3ccccc3n2)cc1 as well.
Response given: 89.6

Challenge: Please do the same for C=CCSSc1ncnc2c1ncn2C1OC(CO)C(O)C1O (stereo not drawn) as well.
Response given: 53.8

Challenge: Please do the same for O=C(COc1ccc(-c2nc3cc(Cl)c(Cl)cc3[nH]2)cc1)N=Nc1c(O)[nH]c2ccccc12 as well.
Response given: -32.3
